Values were extracted from paper PMC8810855.

biological target: Arp2/3 complex (bovine brain) (bovine, UniProt P61157 1-418; A7MB62 1-394; Q58CQ2 1-372; Q3MHR7 1-300; Q3T035 1-178; Q148J6 …); assay: ITC; ATP; second, low-affinity site (Kd2)
pKd: −log10 of the molar value.
measure.name: pKd

[
  {
    "binder": "Hybrid_WH2_C-helix (N-WASP WH2 domain and C-helix with linker and A domain of Arpin) (other) PVSCSGRDALLDQIRQGIQLKSVADGQESTPPTPAPTSGIVGALMEVMQKRSKAIAAAEIREQGDGAEDEEWDD",
    "obs.value": 6.08
  }
]
